From: patent US20170305894A1

Molecular target: PPARdelta (Homo sapiens, UniProt Q03181)
Construct: expressed in transfected cells
Sequence (Q03181 whole entry): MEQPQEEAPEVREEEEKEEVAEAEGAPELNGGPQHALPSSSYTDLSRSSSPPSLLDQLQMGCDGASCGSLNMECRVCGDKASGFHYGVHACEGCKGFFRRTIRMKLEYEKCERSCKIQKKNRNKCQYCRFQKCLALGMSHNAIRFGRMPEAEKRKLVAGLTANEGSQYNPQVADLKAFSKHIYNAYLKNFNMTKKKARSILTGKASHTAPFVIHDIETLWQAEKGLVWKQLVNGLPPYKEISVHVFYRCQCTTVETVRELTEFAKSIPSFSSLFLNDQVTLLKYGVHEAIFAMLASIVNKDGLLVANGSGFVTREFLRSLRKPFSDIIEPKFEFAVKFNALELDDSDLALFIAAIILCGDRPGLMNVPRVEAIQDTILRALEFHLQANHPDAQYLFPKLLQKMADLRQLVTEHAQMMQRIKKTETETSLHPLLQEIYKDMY
Experiment: NHR Protein Interaction Biosensor assay (PathHunter NHR cell lines, agonist format)
Assay type: cell-based
Conditions: PathHunter NHR cells, agonist format; read-out: NHR Protein Interaction Biosenor assay, PPARdelta EC50
// returns NOT MET unless EC50 is strictly below 1 nM, in which case MET

{"columns": ["Record Smiles", "Answer Label"],
 "data": [
  ["Cc1ccc(-c2ccc(-c3ncc(C)n3Cc3ccccc3OCCCCCC(=O)O)cc2)o1", "MET"],
  ["Cc1cn(Cc2ccccc2OCCCCC(C)(C)C(=O)O)c(-c2ccc(-c3ccco3)cc2)n1", "NOT MET"],
  ["Cc1cnc(-c2ccc(C#CC(F)(F)F)cc2)n1Cc1ccccc1OCCCCCC(=O)O", "MET"],
  ["C/C(=C\\COc1ccccc1Cn1c(C)cnc1-c1ccc(-c2ccco2)cc1)CCC(=O)O", "MET"],
  ["Cc1cnc(-c2ccc(-c3ccco3)cc2)n1Cc1ccccc1CCCCCCC(=O)O", "NOT MET"],
  ["O=C(O)CCCCCOc1ccccc1Cn1ccnc1-c1ccc(-c2ccco2)cc1", "NOT MET"]
]}

Determine whether this compound shows EC50 lower than 1 nM (ties excluded): `Cc1cnc(-c2ccc(-c3ccco3)cc2)n1Cc1ccccc1OCCCCCC(=O)O`
MET

Determine whether this compound shows EC50 lower than 1 nM (ties excluded): `Cc1cnc(-c2ccc(OC(F)(F)F)cc2)n1Cc1ccccc1OCCCCCC(=O)O`
NOT MET

Determine whether this compound shows EC50 lower than 1 nM (ties excluded): `Cc1cn(Cc2ccccc2OCCCCCC(=O)O)c(-c2ccc(-c3ccc(C)o3)cc2)n1`
NOT MET

Determine whether this compound shows EC50 lower than 1 nM (ties excluded): `Cc1cnc(-c2ccc(-c3ccco3)cc2)n1Cc1ccccc1OCCCCC(C)(C)C(=O)O`
MET

###

Biological target: PPARdelta (Homo sapiens, UniProt Q03181)
Construct: expressed in transfected cells
Test: NHR Protein Interaction Biosensor assay (PathHunter NHR cell lines, agonist format)
Assay type: cell-based
Result Type: pEC50
Schema: pEC50 number; meaning minus log10 of the concentration expressed in molar units.

The following compounds have reported results that may help.
{"columns": ["Record Smiles", "pEC50"],
 "data": [
  ["C/C(=C\\COc1ccccc1Cc1c(C)noc1-c1ccc(-c2ccco2)cc1)CCC(=O)O", 8.04],
  ["Cc1cn(Cc2ccccc2OCCCCCC(=O)O)c(-c2ccc(-c3ccco3)cc2)n1", 7.87]
]}

Returns the measured pEC50 for the input compound. Input: `Cc1nc(-c2ccc(-c3ccco3)cc2)c(Cc2ccccc2OCCCCCC(=O)O)s1`
8.90

Returns the measured pEC50 for the input compound. Input: `C/C(=C\COc1ccccc1Cc1c(C)n[nH]c1-c1ccc(-c2ccco2)cc1)CCC(=O)O`
8.30

Returns the measured pEC50 for the input compound. Input: `Cn1cc(Cc2ccccc2OCCCCCC(=O)O)c(-c2ccc(-c3ccco3)cc2)n1`
7.70

###

The reader will find reported EC50 values listed item by item below.
Biological target: Human PPARδ (Homo sapiens, UniProt Q03181)
Construct: (PPARδ amino acid 128 to C-terminus); expressed in transfected cells; host or cells: CV-1 cells
Sequence (Q03181 128-441 limits assumed): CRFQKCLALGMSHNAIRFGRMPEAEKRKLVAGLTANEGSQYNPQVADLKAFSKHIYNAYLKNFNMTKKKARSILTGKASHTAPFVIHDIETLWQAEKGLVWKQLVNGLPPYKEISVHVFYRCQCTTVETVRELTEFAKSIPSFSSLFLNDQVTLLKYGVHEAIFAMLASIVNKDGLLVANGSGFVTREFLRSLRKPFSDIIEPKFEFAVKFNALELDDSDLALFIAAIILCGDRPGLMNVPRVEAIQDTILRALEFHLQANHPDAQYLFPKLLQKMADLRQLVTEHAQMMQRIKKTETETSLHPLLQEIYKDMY
Experiment: PPARδ activity screen: GAL4-PPARδ LBD luciferase transactivation in CV-1 cells
Format: cell-based
Conditions: CV-1 cells, GAL4-PPARδ LBD luciferase reporter, compound for 24 h; read-out: PPAR delta transactivation EC50
Procedure: CV-1 cells were grown in DMEM+10% charcoal stripped FCS. Cells were seeded into 384-well plates the day before transfection to give a confluency of 50-80% at transfection. […] The activity of a compound is calculated as fold induction compared to an untreated sample. […] EC50 values were calculated via non-linear regression using GraphPad PRISM (GraphPad Software, San Diego, Calif.).
Response body: numeric value in nM, unit text excluded.

The following molecules have reported results that may help.
{"columns": ["Record Smiles", "EC50 (nM)"],
 "data": [
  ["O=C(O)CCCCCOc1ccccc1Cn1ccnc1-c1ccc(-c2ccco2)cc1", 9.5],
  ["Cc1cnc(-c2ccc(OC(F)(F)F)cc2)n1Cc1ccccc1OCCCCCC(=O)O", 0.94],
  ["Cc1ccc(-c2ccc(-c3ncc(C)n3Cc3ccccc3OCCCCCC(=O)O)cc2)o1", 1.2]
]}

Below: the item to evaluate.
Returns the measured EC50 for the input molecule. Input: `Cc1cn(Cc2ccccc2OCCCCC(C)(C)C(=O)O)c(-c2ccc(-c3ccco3)cc2)n1`
58
